# Tested on: CYP1A2
# EXPERIMENT: in vitro
# Assay type: in vitro ADME
# MEASUREMENT CONTEXT: human, mRNA levels EC50, donor 3, 72 h
ASSAY ENDPOINT: EC50 at 72 h (µM)

{"CHEMICAL STRING": "CCC(=O)C(C[C@H](C)N(C)C)(c1ccccc1)c1ccccc1", "ASSAY ENDPOINT": "EC50 at 72 h", "UNITS SYMBOL": "µM", "REPORTED MEASUREMENT": 26.3}

---

# Tested on: CYP2B6
# EXPERIMENT: in vitro
# Type: in vitro ADME
# MEASUREMENT CONTEXT: human, mRNA levels EC50, donor 1, 72 h

{"CHEMICAL STRING": "CCC(=O)C(C[C@H](C)N(C)C)(c1ccccc1)c1ccccc1", "ASSAY TARGET": "CYP2B6", "UNITS SYMBOL": "µM", "EC50 at 72 h": 4.3}
